# System: Trichoderma virens ATCC 9645
# procedure.details: growth yield (OD600) with compound + IPBC relative to untreated control; higher = less growth inhibition
# condition.set: compound concentration: 100 uM; IPBC concentration: 200 ng/ml; 40 h
Counter-ions that a name gives are not always drawn. Among all 1,300 compounds or so, about 130 (10%) showed an effect of 50% or more. The full list was thinned out, with strong results kept by preference.
Reported growth yield values follow for various compounds
measured.attribute: growth yield

INSERT INTO assay_data (compound, measured_attribute, assay_value) VALUES
  ('Nc1nc(O)c2ncn(CCC(CO)CO)c2n1 [Penciclovir] + CCCCNC(=O)OCC#CI [3-iodo-2-propynyl butylcarbamate (IPBC)]', 'growth yield', '82.8%'),
  ('N=C(NCCCCCCNC(=N)NC(=N)Nc1ccc(Cl)cc1)NC(=N)Nc1ccc(Cl)cc1 [Chlorhexidine] + CCCCNC(=O)OCC#CI [3-iodo-2-propynyl butylcarbamate (IPBC)]', 'growth yield', '4.61%'),
  ('C[C@]12CC[C@H](O)C[C@H]1CC[C@@H]1[C@@H]2CC[C@]2(C)[C@@H](C3=CC(=O)OC3)CC[C@]12O [Digitoxigenin] + CCCCNC(=O)OCC#CI [3-iodo-2-propynyl butylcarbamate (IPBC)]', 'growth yield', '79.6%'),
  ('C/C(=C\C(=O)OCCCCCCCCC(=O)O)C[C@@H]1OC[C@H](C[C@@H]2O[C@H]2[C@@H](C)[C@H](C)O)[C@@H](O)[C@H]1O [Mupirocin] + CCCCNC(=O)OCC#CI [3-iodo-2-propynyl butylcarbamate (IPBC)]', 'growth yield', '6.51%'),
  ('Clc1ccc(C(OCCN2CCCCC2)c2ccccc2)cc1 (stereo not given) [Cloperastine hydrochloride] + CCCCNC(=O)OCC#CI [3-iodo-2-propynyl butylcarbamate (IPBC)]', 'growth yield', '78.6%'),
  ('CN1CCN(C2=Nc3ccccc3Oc3ccc(Cl)cc32)CC1 [Loxapine succinate] + CCCCNC(=O)OCC#CI [3-iodo-2-propynyl butylcarbamate (IPBC)]', 'growth yield', '71.8%'),
  ('CC(C)NC(=N)NC(=N)Nc1ccc(Cl)cc1 [Proguanil hydrochloride] + CCCCNC(=O)OCC#CI [3-iodo-2-propynyl butylcarbamate (IPBC)]', 'growth yield', '92.8%'),
  ('CC1=C(C(=O)O)N2C(=O)[C@@H](NC(=O)[C@H](N)c3ccc(O)cc3)[C@H]2SC1 [Cefadroxil] + CCCCNC(=O)OCC#CI [3-iodo-2-propynyl butylcarbamate (IPBC)]', 'growth yield', '81.5%'),
  ('O=c1[nH]cc(F)c(=O)[nH]1 [5-fluorouracil] + CCCCNC(=O)OCC#CI [3-iodo-2-propynyl butylcarbamate (IPBC)]', 'growth yield', '36.9%'),
  ('CCC(C)(C)c1ccc(CC(C)CN2C[C@@H](C)O[C@@H](C)C2)cc1 (stereo not given in full) [Amorolfine hydrochloride] + CCCCNC(=O)OCC#CI [3-iodo-2-propynyl butylcarbamate (IPBC)]', 'growth yield', '3.97%');

* * *

# Tested on: Trichoderma virens ATCC 9645
# procedure.details: growth yield (OD600) with compound + IPBC relative to untreated control; higher = less growth inhibition
# condition.set: compound concentration: 100 uM; IPBC concentration: 200 ng/ml; 72 h
Where a name gives a salt, the structure may show the parent alone. Among all 1,300 compounds or so, about 130 (10%) showed an effect of 50% or more. The sample as a whole holds a higher share of strong results than the screen did.
Reported growth yield values follow for various molecules
measured.attribute: growth yield (%)

INSERT INTO results (molecule, assay_value) VALUES
  ('Cc1cccc(N(C)C(=S)Oc2ccc3ccccc3c2)c1 [Tolnaftate] + CCCCNC(=O)OCC#CI [3-iodo-2-propynyl butylcarbamate (IPBC)]', 35.9),
  ('N=C(N)NCCN1CCCCCCC1 [Guanethidine sulfate] + CCCCNC(=O)OCC#CI [3-iodo-2-propynyl butylcarbamate (IPBC)]', 90.2),
  ('CCCNC(C)C(=O)Nc1ccccc1C (stereo not drawn) [Prilocaine hydrochloride] + CCCCNC(=O)OCC#CI [3-iodo-2-propynyl butylcarbamate (IPBC)]', 95.5);
